src = patent US20230000842A1

# measured-on: CLK2 kinase (Homo sapiens, UniProt P49760)
# Sequence (P49760 whole entry): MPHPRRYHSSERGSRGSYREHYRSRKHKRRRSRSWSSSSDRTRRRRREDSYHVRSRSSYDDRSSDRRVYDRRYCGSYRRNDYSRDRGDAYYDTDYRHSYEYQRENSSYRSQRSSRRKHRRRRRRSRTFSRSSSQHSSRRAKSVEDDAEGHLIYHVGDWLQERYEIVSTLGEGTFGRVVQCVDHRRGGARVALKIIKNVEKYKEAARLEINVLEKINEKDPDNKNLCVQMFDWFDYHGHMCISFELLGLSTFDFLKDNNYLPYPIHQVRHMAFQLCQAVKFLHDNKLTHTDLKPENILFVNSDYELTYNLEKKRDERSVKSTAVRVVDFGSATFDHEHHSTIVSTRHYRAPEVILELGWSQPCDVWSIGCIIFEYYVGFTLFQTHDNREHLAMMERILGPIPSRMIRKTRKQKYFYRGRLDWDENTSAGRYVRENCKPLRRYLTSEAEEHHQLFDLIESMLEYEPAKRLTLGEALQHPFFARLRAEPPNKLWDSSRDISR
# test-protocol: CLK2 kinase activity assay (Z-lyte FRET)
# condition-info: Z-lyte Ser/Thr 6 peptide, 60 μM ATP, 1 h at room temperature
value-kind: pEC50
Interpret pEC50 as the negative base-10 log of the concentration measured in mol/L.

Quick note, pEC50 for Cn1cncc1-c1ccc2cnc(NC(=O)c3ccnc(N4CC(N)C4)c3)cc2c1 [compound 581] landed at 8.70

Recorded result, Cc1ncc(C(=O)Nc2cc3nc(-c4cnc(C)n4C)ccc3cn2)s1 [compound 611] , pEC50: 8.52

Recorded pEC50 (compound Cc1cn(-c2cncc3[nH]c(-c4n[nH]c5ccc(-c6cncc(NC(=O)C7CCC7)c6)nc45)nc23)cn1 [compound 227] ): 8.00

Reported pEC50 of Nc1cncc(-c2cnc3[nH]nc(-c4cc5c(-c6ccncc6)cncc5[nH]4)c3c2)c1 [compound 379] : 8.40

The reported pEC50 of the compound O=C(Nc1ccc2c(c1)OCCO2)c1n[nH]c2ccc(-c3cncc(CN4CCCCC4)c3)cc12 [compound 97] was 9.00

Sure, the documented pEC50 for O=C(Nc1cncc(-c2ccc3[nH]nc(-c4nc5ccncc5[nH]4)c3c2)c1)C1CC1 [compound 204] is 7.57

Measured pEC50, c1cnc2[nH]c(-c3n[nH]c4ccc(-c5cncc(OCCN6CCCC6)c5)cc34)cc2c1 [compound 453] : 8.70

Reported pEC50 for O=C(Nc1ccc(N2CCCC2)nc1)c1n[nH]c2ccc(-c3cncc(CN4CCC4)c3)cc12 [compound 68] was 9.00

====

# System: primary human mesenchymal stem cells (hMSCs)
# test-protocol: Chondrogenesis screening using primary human mesenchymal stem cells
# Type: cell-based
# condition-info: Homo sapiens, Mesenchymal stem cells, hMSC chondrogenesis; concentration required to induce 50% levels of chondrogenesis with TGF-β3 as positive control; read-out: Conc (nM) of 50% TGF-β3 activity
value-kind: EC50 (nM)
Kindly answer with a numeric value in nM, unit omitted.

Looking up CCC(=O)Nc1cncc(-c2ccc3[nH]nc(-c4nc5c(-c6ccsc6)cncc5[nH]4)c3c2)c1 [compound 244] , I found its EC50 recorded as 30

Form: molecule = COc1ccc(NC(=O)c2n[nH]c3ccc(-c4cncc(CN5CCC(F)(F)C5)c4)cc23)cn1 [compound 72] ; EC50 = 100

The reported value for CN(C)Cc1cncc(-c2cc3c(-c4cc5c(-c6cccc(F)c6)nccc5[nH]4)n[nH]c3cn2)c1 [compound 311] in terms of EC50 is 30

Entry under test: CS(=O)(=O)NCc1cc(F)cc(-c2nccc3[nH]c(-c4n[nH]c5ccc(-c6cncc(NC(=O)Cc7ccccc7)c6)nc45)cc23)c1 [compound 530] . Its EC50 was 10

Recorded EC50 (molecule FC1(F)CCN(Cc2cncc(-c3cnc4[nH]nc(-c5cc6c(-c7ccoc7)cccc6[nH]5)c4c3)c2)C1 [compound 503] ): 30

get_value(item= CS(=O)(=O)NCc1cc(F)cc(-c2nccc3[nH]c(-c4n[nH]c5ccc(-c6cncc(CN7CCCCC7)c6)nc45)cc23)c1 [compound 536] , readout=EC50) returns 10

GET /value?item= CN1CCN(c2cc(Nc3ncc4c(-c5ccc6ncccc6c5)c[nH]c4n3)ccn2)CC1 [compound 623] &field=EC50 returns 30

The measured EC50 associated with CC(C)C(=O)Nc1cncc(-c2ccc3[nH]nc(-c4nc5c(-c6ccccc6F)cncc5[nH]4)c3c2)c1 [compound 173] reads 30

Documented EC50 of O=C(Nc1cncc(-c2ccc3[nH]nc(-c4nc5c(-c6ccc(Cl)s6)cncc5[nH]4)c3n2)c1)C1CCC1 [compound 268] : 30

// CC(C)(C)C(=O)Nc1cncc(-c2ccc3[nH]nc(-c4nc5c(-c6ccc(F)s6)ccnc5[nH]4)c3c2)c1 [compound 262] : EC50 value = 30

Reported EC50 of CC(C)Nc1cncc(-c2cnc3[nH]nc(-c4cc5c(-c6cccnc6)ccnc5[nH]4)c3c2)c1 [compound 362] : 10

EC50 for CN1CCN(c2nccc3[nH]c(-c4n[nH]c5cc(F)c(-c6cnn(C)c6)cc45)nc23)CC1 [compound 219] is 30

O=C(Nc1cncc(-c2ccc3[nH]nc(-c4nc5c(-c6ccccc6F)ccnc5[nH]4)c3n2)c1)C(F)(F)F [compound 176] has a reported EC50 of 10

EC50 recorded for this molecule, CN(C)c1cncc(-c2cc3c(-c4cc5cnccc5[nH]4)n[nH]c3cn2)c1 [compound 441] , is 300

Consider CCNCc1cncc(-c2cc3c(-c4cc5c(-c6cccnc6)cncc5[nH]4)n[nH]c3cn2)c1 [compound 367] . Its measured EC50 is 10

====

# measured-on: CLK2 kinase (Homo sapiens)
# test-protocol: CLK2 kinase activity assay (Z-lyte FRET)
# condition-info: Z-lyte Ser/Thr 6 peptide, 60 μM ATP, 1 h at room temperature
value-kind: EC50 (nM)
// return numeric value only (unit: nM, not printed)

Looking up CCNCc1cncc(-c2ccc3[nH]nc(-c4cc5cccnc5[nH]4)c3n2)c1 [compound 440] , I found its EC50 recorded as 3

EC50 measured on Cc1ccc(-c2cncc3[nH]c(-c4n[nH]c5cnc(-c6cncc(NC(=O)C7CCC7)c6)cc45)nc23)s1 [compound 277] = 6

Per the record, CC(C)Nc1cncc(-c2cnc3[nH]nc(-c4cc5c(-c6ccccc6F)nccc5[nH]4)c3c2)c1 [compound 332] has EC50 of 6

Entry CC(=O)Nc1cncc(-c2ccc3[nH]nc(-c4cc5c(N6CCCCC6)nccc5[nH]4)c3c2)c1 [compound 457] , EC50 reported as 1

====

# measured-on: CLK2 kinase (Homo sapiens)
# test-protocol: CLK2 kinase activity assay (Z-lyte FRET)
# condition-info: Z-lyte Ser/Thr 6 peptide, 60 μM ATP, 1 h at room temperature
Kindly supply the reported pEC50 values for the records listed here.
Please express pEC50 as -log10 of the molar concentration.

Sample `CC(C)OC(=O)N1CCC(n2cc(C(=O)Nc3cc4cc(-c5cnn(C)c5)ccc4cn3)cn2)CC1` , system: CLK2 kinase (Homo sapiens). Its pEC50 is 9.00

Reported CLK2 kinase (Homo sapiens) pEC50 for item `O=C(Nc1cnccn1)c1n[nH]c2ccc(-c3cncc(CN4CCCCC4)c3)cc12` was 9.00

So the reported pEC50 for `CN(C)C(=O)Nc1cncc(-c2ccc3[nH]nc(C(=O)Nc4cccnc4)c3c2)c1` , on CLK2 kinase (Homo sapiens), turned out to be 9.00

Hey, CLK2 kinase (Homo sapiens) data for `CC(C)CC(=O)Nc1cncc(-c2cnc3[nH]nc(-c4cc5c(-c6ccncc6)cccc5[nH]4)c3c2)c1` : pEC50 came out at 8.05

====

# measured-on: CLK2 kinase (Homo sapiens, UniProt P49760)
# test-protocol: CLK2 kinase activity assay (Z-lyte FRET);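 note: FRET read-out as coumarin to fluorescein emission ratio, unphosphorylated peptide as 0% and phosphorylated peptide as 100% controls, duplicate reactions, non-linear regression fit of dose-response curves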
# condition-info: Z-lyte Ser/Thr 6 peptide, 60 μM ATP, 1 h at room temperature
value-kind: pEC50
In plain terms, pEC50 is the concentration in mol/L turned into minus its base-10 logarithm.

Per the records, this molecule ( `FC1(F)CCN(Cc2cncc(-c3ccc4[nH]nc(-c5nc6c(N7CCCCC7)cncc6[nH]5)c4c3)c2)C1` ) has pEC50 equal to 8.10

Reported pEC50 for `Cc1cn(-c2nccc3[nH]c(-c4n[nH]c5ccc(-c6cncc(NC(=O)CC(C)C)c6)nc45)nc23)cn1` was 8.40

The molecule listed as Cn1cc(-c2ccc3cnc(NC(=O)c4ccnc(N5CC6CC5CN6)c4)cc3c2)cn1 (stereo not drawn) has a reported pEC50 of 8.52

Per the records, this molecule ( `O=C(Nc1ccnc(C(F)(F)F)c1)c1n[nH]c2ccc(-c3cncc(CN4CCCCC4)c3)cc12` ) has pEC50 equal to 8.52

Recorded pEC50 (molecule `CCCCC(=O)Nc1cncc(-c2cc3c(-c4cc5c(-c6cccnc6)ccnc5[nH]4)n[nH]c3cn2)c1` ): 8.40

Record summary for `CC(C)CC(=O)Nc1cncc(-c2ccc3[nH]nc(-c4nc5c(N6CCN(C)CC6)cccc5[nH]4)c3c2)c1` : reported pEC50 = 8.52

// `CC(C)Nc1cncc(-c2cc3c(-c4cc5c(-c6cccnc6)ccnc5[nH]4)n[nH]c3cn2)c1` : pEC50 value = 8.10

For record `CC(C)Nc1cncc(-c2ccc3[nH]nc(-c4cc5c(-c6cccnc6)ccnc5[nH]4)c3n2)c1` the listed pEC50 is 8.00

// `CS(=O)(=O)NCc1cc(F)cc(-c2nccc3[nH]c(-c4n[nH]c5ccc(-c6cncc(CN7CCCCC7)c6)nc45)cc23)c1` : pEC50 value = 8.30

Item: `Nc1cncc(-c2ccc3[nH]nc(-c4nc5c(-c6ccccc6F)cncc5[nH]4)c3n2)c1` | pEC50: 9.00

Entry `CN1CCN(c2nccc3[nH]c(-c4n[nH]c5ccc(-c6cncc(NC(=O)CC7CCNCC7)c6)cc45)cc23)CC1` , pEC50 reported as 8.22

Kindly note the recorded pEC50 for `O=C(Nc1ccnnc1)c1n[nH]c2ccc(-c3cncc(CN4CCCCC4)c3)cc12` , which is 9.00

Reported pEC50 of `CCCC(=O)Nc1cncc(-c2cc3c(-c4cc5c(-c6cc(F)cc(NCCN(C)C)c6)ccnc5[nH]4)n[nH]c3cn2)c1` : 7.85

In plain terms, `CC(C)CC(=O)Nc1cncc(-c2cnc3[nH]nc(-c4cc5c(-c6cccnc6)ccnc5[nH]4)c3c2)c1` has a documented pEC50 of 8.52

For this molecule ( `Fc1cccc(-c2cccc3[nH]c(-c4n[nH]cc4/C=C/c4cncc(CN5CCCC5)c4)nc23)c1` ), measured pEC50 is 9.00
